Tested on: c-Abl (mouse)
measurementNotes: phosphorylation enrichment, bacterial display (enrichment ratio); higher = better substrate or ligand; peptides without Tyr show the background;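 note: 11-residue human phosphosite peptides and single-mutation variants displayed on the E. coli surface, counted by deep sequencing, each peptide's frequency after selection divided by its frequency in the unselected input library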;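 note: frequency after pTyr selection over input frequency; kinase dosed for 20-30% of maximal phosphorylation in three min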
recordedMetric: phosphorylation enrichment
Give only the figure.

Challenge: Data request, read-out phosphorylation enrichment, for ERIEFYELNKK [PMM2_Y145_D148N]
Response given: 0.486

Challenge: Data request, read-out phosphorylation enrichment, for LTYHMYADPNI [SOS1_Y618_F623I]
Response given: 3.47

Challenge: Entry under review: TRTDAYAVSSF . Reported phosphorylation enrichment?
Response given: 0.645

Challenge: State the recorded phosphorylation enrichment for this entry: KELANYFKLHH [AK7_Y390_YF]
Response given: 0.439

Challenge: Please give the measured phosphorylation enrichment for this sequence: KKHFSYAWPFY [BRDT_Y291]
Response given: 0.493

Challenge: # query: phosphorylation enrichment of entry REENGYNTYAS [FGF10_Y161_I156R]
Response given: 1.25

Challenge: What phosphorylation enrichment value was documented for this sequence, SPFAVYRFFTF [RPGRIP1_Y826_YF] ?
Response given: 0.961

---

testTarget: MERTK (UniProt Q12866)
Sequence (Q12866 whole entry, looked up): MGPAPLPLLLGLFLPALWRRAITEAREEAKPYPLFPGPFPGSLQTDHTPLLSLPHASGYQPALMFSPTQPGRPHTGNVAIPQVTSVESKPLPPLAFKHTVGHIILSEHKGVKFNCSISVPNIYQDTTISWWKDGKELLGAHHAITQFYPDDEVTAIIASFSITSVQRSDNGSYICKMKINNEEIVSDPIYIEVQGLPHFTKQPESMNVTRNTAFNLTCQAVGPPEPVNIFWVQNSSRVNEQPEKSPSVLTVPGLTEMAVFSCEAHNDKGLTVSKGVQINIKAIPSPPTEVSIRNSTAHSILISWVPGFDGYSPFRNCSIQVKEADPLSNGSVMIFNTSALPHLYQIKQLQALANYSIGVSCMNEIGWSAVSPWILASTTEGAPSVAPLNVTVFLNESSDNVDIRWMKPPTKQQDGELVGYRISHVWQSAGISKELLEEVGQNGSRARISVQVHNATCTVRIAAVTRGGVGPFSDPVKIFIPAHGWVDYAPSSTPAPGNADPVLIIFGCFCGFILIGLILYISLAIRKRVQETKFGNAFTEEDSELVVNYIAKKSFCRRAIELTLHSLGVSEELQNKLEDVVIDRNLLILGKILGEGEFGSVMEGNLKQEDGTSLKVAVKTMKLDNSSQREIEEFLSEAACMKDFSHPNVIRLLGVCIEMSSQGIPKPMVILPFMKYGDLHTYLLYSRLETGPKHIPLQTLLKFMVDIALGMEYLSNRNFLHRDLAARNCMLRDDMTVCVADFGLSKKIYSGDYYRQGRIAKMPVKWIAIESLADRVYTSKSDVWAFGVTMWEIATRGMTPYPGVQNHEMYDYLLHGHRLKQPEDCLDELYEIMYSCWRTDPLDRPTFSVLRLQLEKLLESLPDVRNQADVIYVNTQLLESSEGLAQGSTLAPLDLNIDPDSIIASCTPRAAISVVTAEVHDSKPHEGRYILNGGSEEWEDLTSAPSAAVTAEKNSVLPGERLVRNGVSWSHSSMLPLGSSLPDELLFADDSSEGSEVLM
measurementNotes: phosphorylation enrichment, bacterial display (enrichment ratio); higher = better substrate or ligand; peptides without Tyr show the background
recordedMetric: phosphorylation enrichment
The response must contain the number and no unit.

Challenge: Data request, read-out phosphorylation enrichment, for IHETTYNSIKK [ACTA1_Y281_M285K]
Response given: 0.369

Challenge: Query: phosphorylation enrichment; subject: FGSGNYNVFGN [HNRNPA2B1_Y300_D302V_YF]
Response given: 0.406

Challenge: I am curious: what phosphorylation enrichment value has been reported for HTVVSYAKVRA [CLOCK_Y378_E380K] ?
Response given: 0.934

Challenge: Please report the recorded phosphorylation enrichment for ISMAGYSIPEL [EDAR_Y406_T403M] .
Response given: 0.573

Challenge: Value lookup for phosphorylation enrichment; key = IIGNGYYFHVF [MYBPC3_Y1135_R1138H]
Response given: 0.288

Challenge: # phosphorylation enrichment lookup, item ESLSSYRESAK [APOC2_Y47_W48R]
Response given: 0.391

Challenge: So what does the record say about phosphorylation enrichment for SFNNKYGMVAQ [APOB_Y276_K273N_YF] ?
Response given: 0.431

Challenge: I have this sequence here, DNEALYDTCFR [TUBB2B_Y208_I210T] , and I need its recorded phosphorylation enrichment.
Response given: 6.63

Challenge: Bench note: what phosphorylation enrichment did DGMADYSDPSY [CDC5L_Y459] show?
Response given: 0.496

Challenge: Could you share which phosphorylation enrichment value was measured for QRALLYEDTLY [UNC13D_Y56_A59T] ?
Response given: 6

Challenge: May I ask what phosphorylation enrichment has been recorded for MALDRYVAICK [OR2B11_Y127] ?
Response given: 0.411

Challenge: Sample EAEPYYRSLRD [NPHS1_Y1139] — what was its phosphorylation enrichment?
Response given: 0.467

Challenge: Requested read-out: phosphorylation enrichment. Entry: MVTSGYKAKTI [EFR3A_Y447]
Response given: 0.377

Challenge: Return reported phosphorylation enrichment; argument: HELYVYKCDEN [DOCK3_Y548]
Response given: 0.549

Challenge: Fill blank: measured phosphorylation enrichment of the sequence SKGFAYVHFDS [PABPC5_Y149_YF] is ____.
Response given: 0.378

Challenge: Looking for the measured phosphorylation enrichment of LITSVYGCSRQ [TMPRSS6_Y290] , can you help?
Response given: 0.545

Challenge: Which phosphorylation enrichment is reported for this sequence? QEIATYRRLRE [KRT17_Y384_L388R]
Response given: 0.798

Challenge: GET /values?readout=phosphorylation enrichment&item= PSNTEYPGPHS [TP63_Y171_D170E]
Response given: 0.383

Challenge: Reported phosphorylation enrichment for RELGEYPLAEY [ALDH1A3_Y492_A493P] : what is it?
Response given: 0.516

Challenge: Quick one: phosphorylation enrichment of NPQKSYLIRLF [WAS_Y83_F84L_YF] ?
Response given: 0.413

Challenge: Using the record for QPSPSYDSSRG [TCF12_Y70] , report its phosphorylation enrichment.
Response given: 0.414

Challenge: Looking for the measured phosphorylation enrichment of ISHVAYRVLGK [TRRAP_Y892] , can you help?
Response given: 0.34

Challenge: Field request: phosphorylation enrichment | item: RRIHNYRGHLW [VHL_Y112_S111N]
Response given: 0.597

Challenge: I am curious: what phosphorylation enrichment value has been reported for LSGVIYVILWK [PMP22_Y153_R157W] ?
Response given: 0.666

Challenge: Would you mind telling me what phosphorylation enrichment value was observed for PNEAVYTKMMT [G6PD_Y401] ?
Response given: 1.48

Challenge: Requested read-out: phosphorylation enrichment. Entry: PVRIAYDRPRG [SUGP2_Y985]
Response given: 0.591

Challenge: What value of phosphorylation enrichment has been recorded for this entry: LEGEEYRMSGE [KRT3_Y511]
Response given: 0.462

Challenge: phosphorylation enrichment for SGDDGYAKDAQ [TENM4_Y1530_K1535Q] ?
Response given: 0.418

Challenge: Using the record for KLFIEYPTGSG [IRF2BPL_Y423] , report its phosphorylation enrichment.
Response given: 0.374
